Exercise: for every item that follows, state its recorded Mean fluorescence intensity.
Target: T1, monkey LAG-3 (full length, on the cell surface) (monkey, UniProt P18627 24-525 (human entry))
T1 construct: also called HEK293-cLAG-3; monkey LAG-3 protein on the cell surface
T1 chain: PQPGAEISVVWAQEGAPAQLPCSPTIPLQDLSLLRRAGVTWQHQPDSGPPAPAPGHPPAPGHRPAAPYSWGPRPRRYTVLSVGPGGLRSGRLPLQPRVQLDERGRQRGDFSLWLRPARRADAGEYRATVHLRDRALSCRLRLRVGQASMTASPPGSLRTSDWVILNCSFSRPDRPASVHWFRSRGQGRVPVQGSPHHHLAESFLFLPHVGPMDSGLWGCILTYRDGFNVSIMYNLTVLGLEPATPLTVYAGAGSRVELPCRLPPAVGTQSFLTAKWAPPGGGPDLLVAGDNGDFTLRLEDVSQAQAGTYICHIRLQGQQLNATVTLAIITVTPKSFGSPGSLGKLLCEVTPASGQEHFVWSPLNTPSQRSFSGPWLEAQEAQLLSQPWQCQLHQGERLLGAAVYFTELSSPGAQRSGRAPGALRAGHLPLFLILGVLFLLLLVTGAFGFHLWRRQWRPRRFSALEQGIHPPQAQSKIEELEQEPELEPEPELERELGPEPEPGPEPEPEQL
Assay: FACS, HEK293-cLAG-3; 0.320 nM
Your answer should be a plain number; it is taken to be in MFI.

Give its Mean fluorescence intensity value. Item: 105F1E10 (mouse antibody purified from hybridoma) (antibody, V domains shown, also called mAb009-105F1E10) VH: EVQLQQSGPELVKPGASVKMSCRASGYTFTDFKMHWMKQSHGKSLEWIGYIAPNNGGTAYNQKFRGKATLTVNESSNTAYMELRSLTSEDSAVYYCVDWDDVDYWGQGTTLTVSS VL: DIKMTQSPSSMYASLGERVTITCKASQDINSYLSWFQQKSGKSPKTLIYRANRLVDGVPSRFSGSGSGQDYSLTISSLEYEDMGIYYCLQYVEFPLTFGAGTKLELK
6.6

Give its Mean fluorescence intensity value. Item: 405B8H3 (mouse antibody purified from hybridoma) (antibody, V domains shown, also called mAb103-405B8H3; 405B81-13) VH: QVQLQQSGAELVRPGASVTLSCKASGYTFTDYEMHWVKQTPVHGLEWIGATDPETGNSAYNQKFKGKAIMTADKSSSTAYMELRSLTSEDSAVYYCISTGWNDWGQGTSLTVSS VL: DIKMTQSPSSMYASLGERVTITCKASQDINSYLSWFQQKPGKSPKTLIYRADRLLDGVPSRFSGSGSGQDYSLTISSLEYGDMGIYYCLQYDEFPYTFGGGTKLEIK
8

Give its Mean fluorescence intensity value. Item: 409B11E12 (mouse antibody purified from hybridoma) (antibody, V domains shown, also called mAb104-409B11E12) VH: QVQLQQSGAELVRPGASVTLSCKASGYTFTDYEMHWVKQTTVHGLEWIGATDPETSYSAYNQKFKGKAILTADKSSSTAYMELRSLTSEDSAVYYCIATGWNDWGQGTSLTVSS VL: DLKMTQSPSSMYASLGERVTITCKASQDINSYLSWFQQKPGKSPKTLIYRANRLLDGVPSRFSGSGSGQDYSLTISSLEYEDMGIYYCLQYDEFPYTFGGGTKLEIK
8

Give its Mean fluorescence intensity value. Item: 409D4E10 (mouse antibody purified from hybridoma) (antibody, V domains shown, also called mAb112-409D4E10) VH: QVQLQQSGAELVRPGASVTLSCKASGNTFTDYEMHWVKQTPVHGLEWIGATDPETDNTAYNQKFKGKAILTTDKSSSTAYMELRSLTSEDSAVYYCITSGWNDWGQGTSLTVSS VL: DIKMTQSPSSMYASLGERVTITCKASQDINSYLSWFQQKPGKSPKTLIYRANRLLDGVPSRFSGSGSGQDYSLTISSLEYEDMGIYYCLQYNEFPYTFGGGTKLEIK
11.5

Give its Mean fluorescence intensity value. Item: 556F6B8 (mouse antibody purified from hybridoma) (antibody, V domains shown, also called mAb123-556F6B8) VH: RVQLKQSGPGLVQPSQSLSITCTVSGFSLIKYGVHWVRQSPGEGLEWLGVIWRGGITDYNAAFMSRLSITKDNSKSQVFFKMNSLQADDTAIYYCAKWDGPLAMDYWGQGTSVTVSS VL: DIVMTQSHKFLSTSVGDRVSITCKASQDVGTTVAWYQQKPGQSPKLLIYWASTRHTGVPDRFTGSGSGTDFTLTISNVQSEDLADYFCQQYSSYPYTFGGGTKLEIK
9.8
